All values here come from ChEMBL document CHEMBL3509421.

# Assay Explanation: Mean Cmax value of diclofenac following single oral dosing of 35 mg Zorvolex capsule in healthy human
# Assay type: ADME, organism-based
# Parameters: dietary status Fed, dose 35 mg, dosed compound id 2.46815e+06, dosed compound name Diclofenac, gender Mixed, regimen Single, route oral
# Condition Label: both, plasma
Measured Property: Cmax (ng/mL)
One number for each entry, in ng/mL.

Incoming: Write down Cmax measured for item O=C(O)Cc1ccccc1Nc1c(Cl)cccc1Cl [DICLOFENAC]
Outgoing: 355

----------
# Assay Explanation: Mean AUC (0-t) of diclofenac following single oral dosing of 50 mg diclofenac potassium softgel capsule in healthy human
# Format: ADME, organism-based
# Set-up: dietary status Fasting, dose 50 mg, dosed compound id 2.46815e+06, dosed compound name Diclofenac potassium, gender Mixed, regimen Single, route oral, study doses 25/50 mg
# Condition Label: both, plasma
Measured Property: AUC(0-t) (ng·h/mL)
Numbers only, in ng·h/mL.

Incoming: Write down AUC(0-t) measured for item O=C(O)Cc1ccccc1Nc1c(Cl)cccc1Cl
Outgoing: 1520

----------
# Assay Explanation: Mean Tmax of diclofenac following single oral dosing of 25 mg diclofenac potassium softgel capsule in healthy human
# Format: ADME, organism-based
# Design: dietary status Fasting, dose 25 mg, dosed compound id 2.46815e+06, dosed compound name Diclofenac potassium, gender Mixed, regimen Single, route oral, study doses 25/50 mg
# Condition Label: both, plasma
Measured Property: Tmax (min)
Numbers only, in min.

Incoming: Write down Tmax measured for item O=C(O)Cc1ccccc1Nc1c(Cl)cccc1Cl
Outgoing: 29.4

----------
# Assay Explanation: Mean Cmax of diclofenac following single oral dosing of 25 mg diclofenac potassium softgel capsule in healthy human
# Type: ADME, organism-based
# Set-up: dietary status Fasting, dose 25 mg, dosed compound id 2.46815e+06, dosed compound name Diclofenac potassium, gender Mixed, regimen Single, route oral, study doses 25/50 mg
# Condition Label: both, plasma
Measured Property: Cmax (ng/mL)
Numbers only, in ng/mL.

Incoming: Write down Cmax measured for item O=C(O)Cc1ccccc1Nc1c(Cl)cccc1Cl
Outgoing: 1160

----------
# Assay Explanation: clinical
# Condition Label: both, human, plasma, po, 50 mg
Measured Property: half-life (h)
Answers are plain numbers, in h.

Incoming: Write down half-life measured for item O=C(O)Cc1ccccc1Nc1c(Cl)cccc1Cl
Outgoing: 1.35

----------
# Assay Explanation: Mean AUC(0-infinity) of diclofenac potassium following oral dosing of Cataflam 50 mf tablet in healthy human
# Type: ADME, organism-based
# Design: dietary status Fed, dose 50 mg, dosed compound id 2.46815e+06, dosed compound name Diclofenac potassium, gender Mixed, regimen Single, route oral, study doses 50 mg, time infinity
# Condition Label: both, plasma, 50 mg, read-out: AUC(0-infinity)
Measured Property: AUC(0-inf) (ng·h/mL)
Numbers only, in ng·h/mL.

Incoming: Write down AUC(0-inf) measured for item O=C(O)Cc1ccccc1Nc1c(Cl)cccc1Cl [DICLOFENAC]
Outgoing: 1070

----------
# Assay Explanation: Geometric mean for apparent terminal elimination rate constant of diclofenac following single oral dosing of 50 mg Cataflam tablet in healthy human
# Assay type: ADME, organism-based, Plasma
# Parameters: dietary status Fasting, dose 50 mg, dosed compound id 2.46815e+06, dosed compound name Diclofenac potassium, gender Mixed, regimen Single, route oral
# Condition Label: in vivo
Measured Property: lambda-z (h⁻¹)
Give bare numbers, in h⁻¹.

Incoming: Write down lambda-z measured for item O=C(O)Cc1ccccc1Nc1c(Cl)cccc1Cl
Outgoing: 0.318

----------
# Assay Explanation: Mean Cmax value of diclofenac following single oral dosing of 50 mg Cataflam tablet in healthy human
# Type: ADME, organism-based
# Set-up: dietary status Fasting, dose 50 mg, dosed compound id 2.46815e+06, dosed compound name Diclofenac potassium, gender Mixed, regimen Single, route oral
# Condition Label: both, plasma
Measured Property: Cmax (ng/mL)
One number for each entry, in ng/mL.

Incoming: Write down Cmax measured for item O=C(O)Cc1ccccc1Nc1c(Cl)cccc1Cl
Outgoing: 1190

----------
# Assay Explanation: clinical
# Condition Label: both, human, plasma, po, 25 mg
# Description: Mean terminal elimination half-life of diclofenac following single oral dosing of 25 mg diclofenac potassium softgel capsule in healthy human
Measured Property: half-life (h)
One number for each entry, in h.

Incoming: Write down half-life measured for item O=C(O)Cc1ccccc1Nc1c(Cl)cccc1Cl
Outgoing: 1.04

----------
# Assay Explanation: Mean median Tmax value of diclofenac potassium following oral dosing of PRO-513 50 mg sachet in healthy human
# Assay type: ADME, organism-based
# Design: dietary status Fasting, dose 50 mg, dosed compound id 2.46815e+06, dosed compound name Diclofenac potassium, gender Mixed, regimen Single, route oral, study doses 50 mg
# Condition Label: both, plasma, read-out: Median Tmax
Measured Property: Tmax (min)
Numbers only, in min.

Incoming: Write down Tmax measured for item O=C(O)Cc1ccccc1Nc1c(Cl)cccc1Cl
Outgoing: 15

----------
# Assay Explanation: Mean AUC (0-t) value of diclofenac following single oral dosing of 18 mg Zorvolex capsule in healthy human
# Type: ADME, organism-based
# Design: dietary status Fasting, dose 18 mg, dosed compound id 2.46815e+06, dosed compound name Diclofenac, gender Mixed, regimen Single, route oral
# Condition Label: both, plasma
Measured Property: AUC(0-t) (ng·h/mL)
Answers are plain numbers, in ng·h/mL.

Incoming: Write down AUC(0-t) measured for item O=C(O)Cc1ccccc1Nc1c(Cl)cccc1Cl [DICLOFENAC]
Outgoing: 490

----------
# Assay Explanation: Mean AUC (0-t) of diclofenac following single oral dosing of 25 mg diclofenac potassium softgel capsule in healthy human
# Assay type: ADME, organism-based
# Parameters: dietary status Fed, dose 25 mg, dosed compound id 2.46815e+06, dosed compound name Diclofenac potassium, gender Mixed, regimen Single, route oral, study doses 25/50 mg
# Condition Label: both, plasma
Measured Property: AUC(0-t) (ng·h/mL)
Numbers only, in ng·h/mL.

Incoming: Write down AUC(0-t) measured for item O=C(O)Cc1ccccc1Nc1c(Cl)cccc1Cl [DICLOFENAC]
Outgoing: 680

----------
# Assay Explanation: Geometric mean for Cmax of diclofenac following single oral dosing of 50 mg Cataflam tablet in healthy human
# Type: ADME, organism-based
# Set-up: dietary status Fasting, dose 50 mg, dosed compound id 2.46815e+06, dosed compound name Diclofenac potassium, gender Mixed, regimen Single, route oral
# Condition Label: both, plasma
Measured Property: Cmax
Express your answer as a number followed by its unit.

Incoming: Write down Cmax measured for item O=C(O)Cc1ccccc1Nc1c(Cl)cccc1Cl
Outgoing: 1090 ng/mL

----------
# Assay Explanation: Mean Kel of diclofenac potassium following oral dosing of PRO-513 50 mg sachet in healthy human
# Type: ADME, organism-based
# Set-up: dietary status Fasting, dose 50 mg, dosed compound id 2.46815e+06, dosed compound name Diclofenac potassium, gender Mixed, regimen Single, route oral, study doses 50 mg
# Condition Label: both, plasma
Measured Property: k el (s⁻¹)
Give bare numbers, in s⁻¹.

Incoming: Write down k el measured for item O=C(O)Cc1ccccc1Nc1c(Cl)cccc1Cl
Outgoing: 0.000156

----------
# Assay Explanation: Mean Tmax of diclofenac following single oral dosing of 25 mg diclofenac potassium softgel capsule in healthy human
# Assay type: ADME, organism-based
# Set-up: dietary status Fed, dose 25 mg, dosed compound id 2.46815e+06, dosed compound name Diclofenac potassium, gender Mixed, regimen Single, route oral, study doses 25/50 mg
# Condition Label: both, plasma
Measured Property: Tmax (h)
Give bare numbers, in h.

Incoming: Write down Tmax measured for item O=C(O)Cc1ccccc1Nc1c(Cl)cccc1Cl
Outgoing: 1.02

----------
# Assay Explanation: Mean AUC (0-t) of diclofenac following single oral dosing of 25 mg diclofenac potassium softgel capsule in healthy human
# Format: ADME, organism-based
# Design: dietary status Fasting, dose 25 mg, dosed compound id 2.46815e+06, dosed compound name Diclofenac potassium, gender Mixed, regimen Single, route oral, study doses 25/50 mg
# Condition Label: both, plasma
Measured Property: AUC(0-t)

Incoming: Write down AUC(0-t) measured for item O=C(O)Cc1ccccc1Nc1c(Cl)cccc1Cl
Outgoing: 691 ng·h/mL

----------
# Assay Explanation: Mean AUC(0-infinity) of diclofenac following single oral dosing of 50 mg Cataflam in healthy human
# Assay type: ADME, organism-based
# Design: time infinity, dietary status Fasting, dose 50 mg, dosed compound id 2.46815e+06, dosed compound name Diclofenac potassium, gender Mixed, regimen Single, route oral, study doses 50 mg
# Condition Label: both, plasma, read-out: AUC (0-infinity)
Measured Property: AUC(0-inf)

Incoming: Write down AUC(0-inf) measured for item O=C(O)Cc1ccccc1Nc1c(Cl)cccc1Cl
Outgoing: 1140 ng·h/mL

----------
# Assay Explanation: Mean Cmax value of diclofenac following single oral dosing of 35 mg Zorvolex capsule in healthy human
# Format: ADME, organism-based
# Parameters: dietary status Fasting, dose 35 mg, dosed compound id 2.46815e+06, dosed compound name Diclofenac, gender Mixed, regimen Single, route oral
# Condition Label: both, plasma
Measured Property: Cmax
Express your answer as a number followed by its unit.

Incoming: Write down Cmax measured for item O=C(O)Cc1ccccc1Nc1c(Cl)cccc1Cl
Outgoing: 869 ng/mL
